# TARGET_UNDER_TEST: amylin receptor AMY1, a CT (calcitonin) receptor/RAMP1 (receptor-activity modifying protein) complex (UniProt P30988 25-474; O60894 27-148, limits assumed)
# Sequence (P30988 25-474 limits assumed, chain 1 of 2): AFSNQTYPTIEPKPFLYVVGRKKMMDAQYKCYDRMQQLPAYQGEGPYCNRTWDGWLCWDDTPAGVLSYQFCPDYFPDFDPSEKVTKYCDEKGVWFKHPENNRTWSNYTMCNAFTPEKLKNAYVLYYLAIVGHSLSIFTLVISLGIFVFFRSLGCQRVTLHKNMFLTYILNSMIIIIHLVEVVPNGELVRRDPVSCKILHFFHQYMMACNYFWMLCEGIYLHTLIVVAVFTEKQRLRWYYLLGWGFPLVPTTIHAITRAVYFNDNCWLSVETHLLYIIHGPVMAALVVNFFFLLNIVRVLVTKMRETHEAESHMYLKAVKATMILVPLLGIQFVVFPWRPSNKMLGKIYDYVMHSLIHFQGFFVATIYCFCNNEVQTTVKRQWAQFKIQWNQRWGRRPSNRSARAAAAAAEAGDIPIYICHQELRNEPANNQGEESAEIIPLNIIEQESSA
# Sequence (O60894 27-148 limits assumed, chain 2 of 2): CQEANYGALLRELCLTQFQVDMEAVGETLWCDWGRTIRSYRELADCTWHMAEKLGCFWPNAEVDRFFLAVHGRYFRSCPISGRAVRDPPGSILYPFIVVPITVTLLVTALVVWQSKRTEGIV
# PROTOCOL_TEXT: cell-based or functional assay
EXPERIMENTAL_ENDPOINT: IC50 nM (calcium flux, inhibition of stimulation by 32 nM α-CGRP) (nM)

>  <BINDER>
H-ACNTAACVLGRLSQELHRLQTYPRTNVGSKAF-NH2 (not fully specified (bridges); printed as NH2-Ala-Cys-Asn-Thr-Ala-Ala-Cys-Val-Leu-Gly-Arg-Leu-Ser-Gln-Glu-Leu-His-Arg-Leu-Gln-Thr-Tyr-Pro-Arg-Thr-Asn-Val-Gly-Ser-Lys-Ala-Phe-NH2; cysteine pairing not given here) [modified calcitonin gene-related peptide antagonist of SEQ ID NO: 4]

>  <TEST_RESULT>
12

$$$$
>  <BINDER>
H-ACNLSVCVLGRLSQELHRLQTYPRTNVGSKAF-NH2 (not fully specified (bridges); printed as NH2-Ala-Cys-Asn-Leu-Ser-Val-Cys-Val-Leu-Gly-Arg-Leu-Ser-Gln-Glu-Leu-His-Arg-Leu-Gln-Thr-Tyr-Pro-Arg-Thr-Asn-Val-Gly-Ser-Lys-Ala-Phe-NH2; cysteine pairing not given here) [modified calcitonin gene-related peptide antagonist of SEQ ID NO: 11]

>  <TEST_RESULT>
9

$$$$
>  <BINDER>
H-CSNTAVCVLGRLSQELHRLQTYPRTNVGSKAF-NH2 (not fully specified (bridges); printed as NH2-Cys-Ser-Asn-Thr-Ala-Val-Cys-Val-Leu-Gly-Arg-Leu-Ser-Gln-Glu-Leu-His-Arg-Leu-Gln-Thr-Tyr-Pro-Arg-Thr-Asn-Val-Gly-Ser-Lys-Ala-Phe-NH2; cysteine pairing not given here) [modified calcitonin gene-related peptide antagonist of SEQ ID NO: 12]

>  <TEST_RESULT>
9

$$$$

// data source = patent US20140329752A1
